Biological target: GECFINDER-Phe3 (Aneurinibacillus migulanus, UniProt P0C061)
Construct: gene grsA; GrsA-PheA-PCP; cpEGFP inserted in hinge B, linkers VF-QS
Sequence (P0C061 1-617): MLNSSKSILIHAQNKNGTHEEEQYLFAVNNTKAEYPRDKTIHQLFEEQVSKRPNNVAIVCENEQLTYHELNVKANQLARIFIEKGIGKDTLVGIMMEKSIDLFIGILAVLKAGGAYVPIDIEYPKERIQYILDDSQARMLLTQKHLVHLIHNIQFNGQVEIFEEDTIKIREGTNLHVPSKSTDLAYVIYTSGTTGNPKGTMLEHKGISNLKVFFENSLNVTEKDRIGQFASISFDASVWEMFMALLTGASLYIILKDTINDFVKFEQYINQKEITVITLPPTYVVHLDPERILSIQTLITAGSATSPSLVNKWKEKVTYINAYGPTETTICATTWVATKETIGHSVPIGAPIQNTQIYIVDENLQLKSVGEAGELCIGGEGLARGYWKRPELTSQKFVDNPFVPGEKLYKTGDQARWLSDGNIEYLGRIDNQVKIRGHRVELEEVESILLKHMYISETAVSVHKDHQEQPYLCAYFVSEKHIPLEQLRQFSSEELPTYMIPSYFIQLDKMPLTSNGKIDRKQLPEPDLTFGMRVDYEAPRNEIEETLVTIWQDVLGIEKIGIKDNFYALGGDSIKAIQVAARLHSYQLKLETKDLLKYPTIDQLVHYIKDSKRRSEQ
Assay: Fluorescence dose-response of purified […]-Phe3 with phenylalanine in 100 mM Tris at pH 8.5, room temperature, 1 mM ATP, 2.5 mM MgCl2.
Type: biochemical
Conditions: n = 3
pEC50: −log10 of the molar value.
ENDPOINT: pEC50

smiles_string=N[C@@H](Cc1ccccc1)C(=O)O endpoint=pEC50 value_observed=5.62
